- measurementTarget: HLA-B08:01 (human)
- methodNotes: peptide-MHC-I complex dissociation half-life, 125I-b2m, 37 C
- experimentalConditions: remark: other sources report otherwise
experimentalReadout: Stability (T1/2 (h))

• FLPSTLKSL [… (ESR1, S463P)] = 0
• SLPRFILMEL [… (ALK, L1196M)] = 0
• SVCFFFFSV [… (CNOT1(+1))] = 0

(a) QLIMQLMPF [… (EGFR, T790M)]
(b) WLHKRGKYI [… (AKT1, E17K)]
input: Determine, for a and b , which has the greater value of Stability (T1/2 (h)). Provide the label of your selected option as the answer.
output: b
(b: 1.3 h, a: 0 h)
